biological target: Receptor-binding domain (RBD) of the SARS-CoV-2 spike protein, WA01/2020 strain (SARS-CoV-2, WA01/2020 strain, UniProt P0DTC2 319-541); experiment: SPR (Biacore 8K), antigen immobilized, antibody injected
Kd overview
Numbers only here, please. The scale is nM.

Below, each entry is followed by its recorded Kd result.
{"columns": ["binder", "value_kind", "observed_measurement"],
 "data": [
  ["antibody 1679 (antibody, V domains shown) VH: QITLKESGPTLVKPTQTLTLTCTFSGFSLSTVGVGVAWIRQPPGKALEWLALIYWDDDKRYSPSLKSRLTITKDTSKNHVVLTMTNMDPVDTATYYCAHHIIAALVDVWGKGTTVTVSS VL: QSALTQPASVSGSPGQSITISCTGTSSDVGGNNYVSWYQHHPGEAPKLMIYEVSNRPSGVSNRFSGSKSGNTASLTISGLQAEDEADYYCSSYTTSSTLVVFGGGSKLTVL", "Kd", 1.01],
  ["antibody 2892 (antibody, V domains shown) VH: QVQLVQSGAEVKKPGSSVKVSCKASGDAFISYAISWVRQAPGQGLEWMGGIIPIFGTANYAQKFQGRVTISADESTSTAYMELSRLRSEDTAVYYCARGGPEPYGSGSGYTPRYNWFDPWGQGTLVTVSS VL: QSALTQPRSVSGSPGQSVTISCTGTSSDVGGYNYVSWYQQHPGKAPKFMIYDVNRRPSGVPDRFSGSKSGNTASLTISGLQAEDEADYYCCSYAGTYTWVFGGGTKLTVL", "Kd", 0.005],
  ["antibody 4042 (antibody, V domains shown) VH: QITLKESGPTLVKPTQTLTLTCTFSGFSLSSGGVGVGWIRQPPGKALEWLALIYWDDDKRYRPSLKSRLTITRDTSTNQVVLTMTNMDPVDTATYFCARHQIATVFDHWGQGTLVTVSS VL: QSALTQPASVSGSPGQSITISCTGTSSDVGGYNYVSWYQQHPGKAPKLMIYEVSNRPSGVSSRFSGSKSGNTASLTISGLQAEDEADYYCSSYTRSSPLVAFGGGTKVTVL", "Kd", 0.036]
]}

Turning to the following binder.
Determine its reported Kd: antibody 3091 (antibody, V domains shown) VH: QMQLVQSGPEVKKPGTSVKVSCKASGFTFSSSAVQWVRQARGQGLEWIGWIVVGSGNANYAQKLQERVSITRDMSTSTAYMELSSLRPEDTAVYYCAAPHCSRTICHDGFDMWGQGTMVTVSS VL: EIVLTQSPGTLSLSPGERATLSCRASQSVRSSYLAWYQQKPGQAPRLLMFVASSRATGIPDRFSGSGSGTDFTLTISRLEPEDFAVYYCQQYDTSPWTFGQGTKVEIK
0.004
